Hey, just so you know, these numbers are from patent US20250289813A1.

target: CDK6/cyclin D1 (Homo sapiens (Human), UniProt Q00534); test: CDK6 Caliper Mobility Shift assay
Sequence (Q00534 whole entry): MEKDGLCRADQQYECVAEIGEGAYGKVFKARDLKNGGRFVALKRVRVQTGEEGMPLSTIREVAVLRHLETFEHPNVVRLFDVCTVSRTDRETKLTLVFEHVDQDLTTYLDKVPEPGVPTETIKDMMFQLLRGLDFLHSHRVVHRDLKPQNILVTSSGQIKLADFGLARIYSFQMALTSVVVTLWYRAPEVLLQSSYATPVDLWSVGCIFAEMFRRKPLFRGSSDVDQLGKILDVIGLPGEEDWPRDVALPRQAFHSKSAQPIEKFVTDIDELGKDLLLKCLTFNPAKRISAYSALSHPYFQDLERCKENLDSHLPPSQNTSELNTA
Sequence (P24385 whole entry partner): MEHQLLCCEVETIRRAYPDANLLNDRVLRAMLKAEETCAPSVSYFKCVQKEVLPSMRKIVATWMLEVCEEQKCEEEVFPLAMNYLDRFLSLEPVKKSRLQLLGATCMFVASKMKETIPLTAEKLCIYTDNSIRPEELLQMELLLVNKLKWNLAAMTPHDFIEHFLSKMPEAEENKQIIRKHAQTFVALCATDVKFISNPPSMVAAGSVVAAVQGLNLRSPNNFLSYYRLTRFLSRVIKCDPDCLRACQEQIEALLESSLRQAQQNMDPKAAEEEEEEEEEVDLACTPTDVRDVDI
# key: entry, value: IC50

compound | property | testValue
CC(=O)c1c(C)c2cnc(Nc3ccc(N4CCN(S(N)(=O)=O)C[C@@H]4C)cn3)nc2n(C2CCCC2)c1=O | IC50 | ≤ 200 nM
COCCNS(=O)(=O)N1CCN(c2ccc(Nc3ncc4c(C)c(C(C)=O)c(=O)n(C5CCCC5)c4n3)nc2)CC1 | IC50 | ≤ 200 nM
CCCC(=O)NS(=O)(=O)N1CCN(c2ccc(Nc3ncc4c(C)c(C(C)=O)c(=O)n(C5CCCC5)c4n3)nc2)CC1 | IC50 | 200 to 500 nM
CC(=O)c1c(C)c2cnc(Nc3ccc(N4CCN(S(=O)(=O)N(C)C)CC4)cn3)nc2n(C2CCCC2)c1=O | IC50 | 200 to 500 nM
CC(=O)c1c(C)c2cnc(Nc3ccc(N4CCN(S(=O)(=O)NC(=O)C(C)C)CC4)cn3)nc2n(C2CCCC2)c1=O | IC50 | 200 to 500 nM

Task: Under CDK6/cyclin D1 (Homo sapiens (Human), UniProt Q00534): IC50 value of CC(=O)c1c(C)c2cnc(Nc3ccc(N4CCN(S(=O)(=O)NC(=O)OCCNC(=O)[C@H](N)C(C)C)C[C@@H]4C)cn3)nc2n(C2CCCC2)c1=O ?
Output: ≤ 200 nM

Task: Under CDK6/cyclin D1 (Homo sapiens (Human), UniProt Q00534): IC50 value of CC(=O)c1c(C)c2cnc(Nc3ccc(N4CCN(S(=O)(=O)NC(=O)OCCO)CC4)cn3)nc2n(C2CCCC2)c1=O ?
Output: ≤ 200 nM

Task: Under CDK6/cyclin D1 (Homo sapiens (Human), UniProt Q00534): IC50 value of CC(=O)c1c(C)c2cnc(Nc3ccc(N4CCN(S(=O)(=O)NC(=O)C(N)C(C)C)CC4)cn3)nc2n(C2CCCC2)c1=O (centres unmarked) ?
Output: ≤ 200 nM

Task: Under CDK6/cyclin D1 (Homo sapiens (Human), UniProt Q00534): IC50 value of CC(=O)c1c(C)c2cnc(Nc3ccc(N4CCN(S(=O)(=O)NCC(=O)O)CC4)cn3)nc2n(C2CCCC2)c1=O ?
Output: ≤ 200 nM

Task: Under CDK6/cyclin D1 (Homo sapiens (Human), UniProt Q00534): IC50 value of CC(=O)c1c(C)c2cnc(Nc3ccc(N4CCN(S(=O)(=O)N5CC(CO)OC5=O)CC4)cn3)nc2n(C2CCCC2)c1=O (centres unmarked) ?
Output: ≤ 200 nM

Task: Under CDK6/cyclin D1 (Homo sapiens (Human), UniProt Q00534): IC50 value of CC(=O)c1c(C)c2cnc(Nc3ccc(N4CCN(S(=O)(=O)OCOC(=O)c5ccccc5)CC4)cn3)nc2n(C2CCCC2)c1=O ?
Output: ≤ 200 nM

Task: Under CDK6/cyclin D1 (Homo sapiens (Human), UniProt Q00534): IC50 value of CCNS(=O)(=O)N1CCN(c2ccc(Nc3ncc4c(C)c(C(C)=O)c(=O)n(C5CCCC5)c4n3)nc2)CC1 ?
Output: ≤ 200 nM

Task: Under CDK6/cyclin D1 (Homo sapiens (Human), UniProt Q00534): IC50 value of CC(=O)c1c(C)c2cnc(Nc3ccc(N4CCN(S(=O)(=O)NC(=O)[C@H]5CCCN5)CC4)cn3)nc2n(C2CCCC2)c1=O ?
Output: ≤ 200 nM

Task: Under CDK6/cyclin D1 (Homo sapiens (Human), UniProt Q00534): IC50 value of CC(=O)c1c(C)c2cnc(Nc3ccc(N4CCN(S(=O)(=O)OC5CCCC5)CC4)cn3)nc2n(C2CCCC2)c1=O ?
Output: 200 to 500 nM

Task: Under CDK6/cyclin D1 (Homo sapiens (Human), UniProt Q00534): IC50 value of CC(=O)c1c(C)c2cnc(Nc3ccc(N4CCN(S(=O)(=O)N5CCCC[C@@H]5CO)CC4)cn3)nc2n(C2CCCC2)c1=O ?
Output: ≤ 200 nM

Task: Under CDK6/cyclin D1 (Homo sapiens (Human), UniProt Q00534): IC50 value of CC(=O)c1c(C)c2cnc(Nc3ccc(N4CCN(S(=O)(=O)NC(=O)OCCNC(=O)[C@@H](N)C(C)C)CC4)cn3)nc2n(C2CCCC2)c1=O ?
Output: ≤ 200 nM

Task: Under CDK6/cyclin D1 (Homo sapiens (Human), UniProt Q00534): IC50 value of CC(=O)c1c(C)c2cnc(Nc3ccc(N4CCN(S(=O)(=O)N5CC(O)C5)CC4)cn3)nc2n(C2CCCC2)c1=O ?
Output: ≤ 200 nM

Task: Under CDK6/cyclin D1 (Homo sapiens (Human), UniProt Q00534): IC50 value of CC(=O)NCCOC(=O)NS(=O)(=O)N1CCN(c2ccc(Nc3ncc4c(C)c(C(C)=O)c(=O)n(C5CCCC5)c4n3)nc2)CC1 ?
Output: ≤ 200 nM

Task: Under CDK6/cyclin D1 (Homo sapiens (Human), UniProt Q00534): IC50 value of CC(=O)c1c(C)c2cnc(Nc3ccc(N4CCN(S(=O)(=O)N[C@H](C(=O)O)C(C)C)CC4)cn3)nc2n(C2CCCC2)c1=O ?
Output: ≤ 200 nM

Task: Under CDK6/cyclin D1 (Homo sapiens (Human), UniProt Q00534): IC50 value of CC(=O)c1c(C)c2cnc(Nc3ccc(N4CCN(S(=O)(=O)NC(=O)OC5CCC5)CC4)cn3)nc2n(C2CCCC2)c1=O ?
Output: ≤ 200 nM

Task: Under CDK6/cyclin D1 (Homo sapiens (Human), UniProt Q00534): IC50 value of CCC(=O)NS(=O)(=O)N1CCN(c2ccc(Nc3ncc4c(C)c(C(C)=O)c(=O)n(C5CCCC5)c4n3)nc2)CC1 ?
Output: ≤ 200 nM

Task: Under CDK6/cyclin D1 (Homo sapiens (Human), UniProt Q00534): IC50 value of CC(=O)NS(=O)(=O)N1CCN(c2ccc(Nc3ncc4c(C)c(C(C)=O)c(=O)n(C5CCCC5)c4n3)nc2)CC1 ?
Output: ≤ 200 nM

Task: Under CDK6/cyclin D1 (Homo sapiens (Human), UniProt Q00534): IC50 value of CC(=O)c1c(C)c2cnc(Nc3ccc(N4CCN(S(=O)(=O)n5ccnc5N)CC4)cn3)nc2n(C2CCCC2)c1=O ?
Output: ≤ 200 nM

Task: Under CDK6/cyclin D1 (Homo sapiens (Human), UniProt Q00534): IC50 value of CC(=O)c1c(C)c2cnc(Nc3ccc(N4CCN(S(=O)(=O)O)CC4)cn3)nc2n(C2CCCC2)c1=O ?
Output: 200 to 500 nM

Task: Under CDK6/cyclin D1 (Homo sapiens (Human), UniProt Q00534): IC50 value of CC(=O)c1c(C)c2cnc(Nc3ccc(N4CCN(S(=O)(=O)NC(=O)C5CCC5)CC4)cn3)nc2n(C2CCCC2)c1=O ?
Output: 200 to 500 nM

Task: Under CDK6/cyclin D1 (Homo sapiens (Human), UniProt Q00534): IC50 value of CC(=O)c1c(C)c2cnc(Nc3ccc(N4CCN(S(=O)(=O)NC(=O)[C@H](C)N)CC4)cn3)nc2n(C2CCCC2)c1=O ?
Output: ≤ 200 nM

###

tested on: MCF-7 human breast cancer cells; test: CELLTITER-GLO luminescent cell viability assay; assay type: cell-based; settings: MCF7, 192 h, MCF-7 cells, 8 days, read-out: EC50 (Effect on Cell Viability)
pEC50: −log10 of the molar value.
property: pEC50

Take a look at these entries with their results.
molecule | pEC50
CC(=O)c1c(C)c2cnc(Nc3ccc(N4CCN(S(N)(=O)=O)C[C@@H]4C)cn3)nc2n(C2CCCC2)c1=O | 5.00 to 6.00
CC(=O)c1c(C)c2cnc(Nc3ccc(N4CCN(S(=O)(=O)n5ccnc5)CC4)cn3)nc2n(C2CCCC2)c1=O | ≥ 6.00
CCCC(=O)NS(=O)(=O)N1CCN(c2ccc(Nc3ncc4c(C)c(C(C)=O)c(=O)n(C5CCCC5)c4n3)nc2)CC1 | 5.00 to 6.00
CC(=O)c1c(C)c2cnc(Nc3ccc(N4CCN(S(=O)(=O)OCOC(=O)C(C)(C)C)CC4)cn3)nc2n(C2CCCC2)c1=O | ≥ 6.00
CC(=O)c1c(C)c2cnc(Nc3ccc(N4CCN(S(=O)(=O)N5CC(CO)OC5=O)CC4)cn3)nc2n(C2CCCC2)c1=O (centres unmarked) | 5.00 to 6.00

Attention now shifts to the item below.
Task: Item under review: CSCC[C@H](N)C(=O)NCCOC(=O)NS(=O)(=O)N1CCN(c2ccc(Nc3ncc4c(C)c(C(C)=O)c(=O)n(C5CCCC5)c4n3)nc2)CC1 . Reported pEC50?
Output: < 5.00

###

target: CDK4/cyclin D1 (Homo sapiens (Human)); test: CDK4 Caliper Mobility Shift assay
Sequence (P11802 whole entry, one chain of several): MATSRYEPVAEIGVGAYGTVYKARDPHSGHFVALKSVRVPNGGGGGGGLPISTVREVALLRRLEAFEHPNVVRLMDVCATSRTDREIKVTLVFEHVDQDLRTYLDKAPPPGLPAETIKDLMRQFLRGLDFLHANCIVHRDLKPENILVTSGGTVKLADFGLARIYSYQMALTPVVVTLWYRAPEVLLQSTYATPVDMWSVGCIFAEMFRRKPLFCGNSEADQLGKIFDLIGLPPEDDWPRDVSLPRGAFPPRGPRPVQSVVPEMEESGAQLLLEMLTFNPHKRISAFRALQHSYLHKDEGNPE
pIC50: −log10 of the molar value.
property: pIC50

Take a look at these entries with their results.
molecule | pIC50
CC(=O)c1c(C)c2cnc(Nc3ccc(N4CCN(S(=O)(=O)NC(C)C)CC4)cn3)nc2n(C2CCCC2)c1=O | ≥ 6.70
CC(=O)c1c(C)c2cnc(Nc3ccc(N4CCN(S(=O)(=O)NC(=O)OCCNC(=O)[C@@H](N)C(C)C)CC4)cn3)nc2n(C2CCCC2)c1=O | ≥ 6.70
CC(=O)c1c(C)c2cnc(Nc3ccc(N4CCN(S(=O)(=O)OC5CCCC5)CC4)cn3)nc2n(C2CCCC2)c1=O | ≥ 6.70
CC(=O)c1c(C)c2cnc(Nc3ccc(N4CCN(S(=O)(=O)n5ccnc5N)CC4)cn3)nc2n(C2CCCC2)c1=O | ≥ 6.70
CC(=O)c1c(C)c2cnc(Nc3ccc(N4CCN(S(=O)(=O)NC(=O)OCC(=O)O)CC4)cn3)nc2n(C2CCCC2)c1=O | 6.30 to 6.70
CC(=O)c1c(C)c2cnc(Nc3ccc(N4CCN(S(=O)(=O)NC(=O)OCCNC(=O)[C@@H](N)CO)CC4)cn3)nc2n(C2CCCC2)c1=O | ≥ 6.70
CC(=O)c1c(C)c2cnc(Nc3ccc(N4CCN(S(=O)(=O)N[C@H](C(=O)O)C(C)C)CC4)cn3)nc2n(C2CCCC2)c1=O | ≥ 6.70
CC(=O)c1c(C)c2cnc(Nc3ccc(N4CCN(S(=O)(=O)N5CCOCC5)CC4)cn3)nc2n(C2CCCC2)c1=O | ≥ 6.70

Task: Under CDK4/cyclin D1 (Homo sapiens (Human)): pIC50 value of CC(=O)NS(=O)(=O)N1CCN(c2ccc(Nc3ncc4c(C)c(C(C)=O)c(=O)n(C5CCCC5)c4n3)nc2)CC1 ?
Output: ≥ 6.70

Task: Under CDK4/cyclin D1 (Homo sapiens (Human)): pIC50 value of CC(=O)c1c(C)c2cnc(Nc3ccc(N4CCN(S(=O)(=O)NC(=O)C5CCC5)CC4)cn3)nc2n(C2CCCC2)c1=O ?
Output: 6.30 to 6.70

Task: Under CDK4/cyclin D1 (Homo sapiens (Human)): pIC50 value of CC(=O)c1c(C)c2cnc(Nc3ccc(N4CCN(S(=O)(=O)NC(=O)OC(C)C)CC4)cn3)nc2n(C2CCCC2)c1=O ?
Output: ≥ 6.70

Task: Under CDK4/cyclin D1 (Homo sapiens (Human)): pIC50 value of CC(=O)c1c(C)c2cnc(Nc3ccc(N4CCN(S(=O)(=O)NC(=O)[C@H](C)N)CC4)cn3)nc2n(C2CCCC2)c1=O ?
Output: ≥ 6.70
